All values here come from patent US20050261472A1.

Biological target: T1, dried fibrin (UniProt P02671 36-629; P02675 45-491; P02679 27-437, limits assumed)
T1 construct: Polymerised fibrin made in 96-well plates from fibrinogen and thrombin, dried at 37 C and rehydrated; also called (rehydrated) dried fibrin; fibrin target
T1 sequence (looked up) 1: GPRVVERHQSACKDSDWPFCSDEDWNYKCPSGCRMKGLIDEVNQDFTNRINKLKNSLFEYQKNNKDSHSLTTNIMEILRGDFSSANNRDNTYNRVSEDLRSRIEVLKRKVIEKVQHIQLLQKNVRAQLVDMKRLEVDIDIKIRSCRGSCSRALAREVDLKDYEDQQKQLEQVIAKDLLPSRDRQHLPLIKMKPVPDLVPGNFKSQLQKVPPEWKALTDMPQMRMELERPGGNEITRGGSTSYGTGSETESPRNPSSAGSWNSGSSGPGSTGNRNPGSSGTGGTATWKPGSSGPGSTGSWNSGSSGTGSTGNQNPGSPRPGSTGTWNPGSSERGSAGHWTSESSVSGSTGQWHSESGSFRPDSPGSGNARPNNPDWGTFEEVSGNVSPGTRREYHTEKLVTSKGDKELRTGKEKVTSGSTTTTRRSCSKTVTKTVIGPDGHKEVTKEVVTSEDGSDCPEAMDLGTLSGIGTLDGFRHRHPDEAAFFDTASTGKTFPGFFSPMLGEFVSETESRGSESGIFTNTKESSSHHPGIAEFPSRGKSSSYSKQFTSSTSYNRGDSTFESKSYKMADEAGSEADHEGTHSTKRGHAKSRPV
T1 sequence (looked up) 2: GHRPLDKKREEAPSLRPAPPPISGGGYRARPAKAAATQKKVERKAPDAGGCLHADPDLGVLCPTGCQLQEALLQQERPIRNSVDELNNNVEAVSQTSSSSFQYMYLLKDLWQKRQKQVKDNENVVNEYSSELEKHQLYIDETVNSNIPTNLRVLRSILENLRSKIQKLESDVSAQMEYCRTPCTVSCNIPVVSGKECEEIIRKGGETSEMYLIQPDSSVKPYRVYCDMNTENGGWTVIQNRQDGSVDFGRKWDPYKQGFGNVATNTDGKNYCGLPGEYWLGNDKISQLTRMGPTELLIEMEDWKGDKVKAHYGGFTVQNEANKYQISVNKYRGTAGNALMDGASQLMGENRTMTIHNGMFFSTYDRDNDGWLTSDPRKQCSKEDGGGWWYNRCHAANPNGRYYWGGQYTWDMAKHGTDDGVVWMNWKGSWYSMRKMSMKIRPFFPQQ
T1 sequence (looked up) 3: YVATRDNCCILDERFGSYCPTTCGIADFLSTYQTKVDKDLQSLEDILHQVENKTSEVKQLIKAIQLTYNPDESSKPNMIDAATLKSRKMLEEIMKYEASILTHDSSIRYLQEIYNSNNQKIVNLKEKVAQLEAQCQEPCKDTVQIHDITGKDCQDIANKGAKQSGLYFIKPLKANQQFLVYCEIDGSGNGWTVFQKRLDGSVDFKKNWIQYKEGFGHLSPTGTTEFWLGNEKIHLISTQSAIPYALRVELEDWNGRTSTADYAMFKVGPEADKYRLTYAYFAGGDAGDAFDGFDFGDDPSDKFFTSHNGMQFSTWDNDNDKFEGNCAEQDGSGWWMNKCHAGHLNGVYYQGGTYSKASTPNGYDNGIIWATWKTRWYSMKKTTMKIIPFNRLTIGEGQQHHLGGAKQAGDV
Test: dried fibrin plate, bound vs free peptide
Bridge positions count the residues as written; N and C are the ends.
Measured Kd accompanies every entry in the list below.
Express the result in µM but write the number alone.

Here is how some binders turned out for Kd.
Binder | Reported Property | Result Number
LPCDYYATCLD (C-terminal amide; N-terminus free) [alanine scan peptide LPCDYYATCLD] | Kd | 41
H-LPCDAYGTCLD-NH2 (disulfide 3-9; SMILES CC(C)C[C@H](NC(=O)[C@@H]1CSSC[C@H](NC(=O)[C@@H]2CCCN2C(=O)[C@@H](N)CC(C)C)C(=O)N[C@@H](CC(=O)O)C(=O)N[C@@H](C)C(=O)N[C@@H](Cc2ccc(O)cc2)C(=O)NCC(=O)N[C@@H]([C@@H](C)O)C(=O)N1)C(=O)N[C@@H](CC(=O)O)C(N)=O) [alanine scan peptide LPCDAYGTCLD] | Kd | 16
H-LPCDYYGTCAD-NH2 (disulfide 3-9; SMILES CC(C)C[C@H](N)C(=O)N1CCC[C@H]1C(=O)N[C@H]1CSSC[C@@H](C(=O)N[C@@H](C)C(=O)N[C@@H](CC(=O)O)C(N)=O)NC(=O)[C@H]([C@@H](C)O)NC(=O)CNC(=O)[C@H](Cc2ccc(O)cc2)NC(=O)[C@H](Cc2ccc(O)cc2)NC(=O)[C@H](CC(=O)O)NC1=O) [alanine scan peptide LPCDYYGTCAD] | Kd | 32

Next binder, please.
// returns reported Kd for input H-LACDYYGTCLD-NH2 (disulfide 3-9; SMILES CC(C)C[C@H](NC(=O)[C@@H]1CSSC[C@H](NC(=O)[C@H](C)NC(=O)[C@@H](N)CC(C)C)C(=O)N[C@@H](CC(=O)O)C(=O)N[C@@H](Cc2ccc(O)cc2)C(=O)N[C@@H](Cc2ccc(O)cc2)C(=O)NCC(=O)N[C@@H]([C@@H](C)O)C(=O)N1)C(=O)N[C@@H](CC(=O)O)C(N)=O) [alanine scan peptide LACDYYGTCLD]
31
